Origin of the recorded values: PubChem BioAssay

# procedureSummary: binders from COS7 lysate, DM2A8 probe, primary screen, torsin A project, cell lysate, small-molecule microarray, fluorescence 635/667 (AID 1065)
# testSettings: higher = more signal, COS7 lysate expressing mutant human TOR1A
composite z-score reference
Just the number, please.

Answered examples (2):
* C=CCNC(=O)[C@H]1[C@@H]2C(=O)O[C@@H](c3ccccc3)[C@@H](c3ccccc3)N2[C@@H](c2ccc(OCCO)cc2)[C@]12C(=O)Nc1ccc(C#CCCO)cc12 | 1.14
* COc1ccc(C#Cc2ccc3c(c2)[C@]2(C(=O)N3)[C@H](c3ccc(O)cc3)N3[C@H](c4ccccc4)[C@H](c4ccccc4)OC(=O)[C@H]3[C@@H]2C(N)=O)cc1 | 0.395

Request: What value of composite z-score has been reported for the following molecule? `COCCCNC(=O)[C@@]1(Cc2ccccc2)N=C(c2ccc(OCCCO)cc2)O[C@H]1c1ccccc1N=[N+]=[N-]`
Response: 0.768

Request: Now the molecule C[C@@H](OCc1ccccc1)C1NC(=O)[C@@]23C(=O)N[C@@H](Cc4ccccc4)C2[C@H](C)[C@@]2(C)O[C@H]2C3/C=C/C/C=C\CNC(=O)[C@@H]2CCCN2C1=O (some centres not stated)
Response: -0.332

Request: Now the molecule C#CCN1C(C(=O)OCC)OC[C@H]1c1ccccc1 (some centres not stated)
Response: 2.59

Request: Now the molecule `COCCCNC(=O)[C@@]1(Cc2ccccc2CN=[N+]=[N-])COC(c2ccc(OCCCO)cc2)=N1`
Response: 1.3

Request: Now the molecule `COc1ccc([Si](C)(C)[C@@H]2[C@@H](CCn3cc([C@H](O)c4ccccc4)nn3)O[C@]3(C(=O)N(C)c4c(Br)cc(C)cc43)[C@H]2C)cc1`
Response: 0.301
